# Applied Conditions: in DMF, 298.15 K
Reported Metric: solubility (mole fraction)

>>> print(df.to_string())
         structure_smiles_string             reported_metric  readout_value
0  O=C(O)Cc1ccc([N+](=O)[O-])cc1  solubility (mole fraction)          0.225

###

# Applied Conditions: in n-butanol, 293.15 K
Reported Metric: solubility (mole fraction)

>>> df
         structure_smiles_string  readout_value
0  O=C(O)Cc1ccc([N+](=O)[O-])cc1         0.0653

###

# Applied Conditions: in n-butanol, 283.15 K
Reported Metric: solubility (mole fraction)

         structure_smiles_string  readout_value
0  O=C(O)Cc1ccc([N+](=O)[O-])cc1         0.0498
